- experiment: Rat pharmacokinetic study after oral administration (SOA)
- Assay type: in vivo
- test_settings: rat, plasma, male Han Wistar rats, nominal 10 mg/kg (actual dose in c1)
- Protocol: For rat pharmacokinetic studies, six male Han Wistar rats were purchased from Beijing Vital River and orally dosed with the test compound at 10 mg/kg in 0.5% Tween-80 and 0.5% hydroxypropyl methylcellulose (v/w). […] Compound absorption was measured by portal vein AUC (AUCHPV) and systemic AUC (AUCSYS) observed maximum concentration (Cmax) in rats after oral administration. […]
Entry flag: Y if Cmax reaches 100 ng/mL; N if it does not.

These recorded examples may help you get a feel for the data.
# smiles_record, assigned_category
data = [
    ("C=CC(=O)Nc1cc(Nc2nccc(Nc3cc(Cl)c(F)cc3C(C)(C)O)n2)c(OC)cc1N1CC[C@@H]1CN(C)C", "Y"),
    ("C=CC(=O)Nc1cc(Nc2ncnc(Nc3cc(Cl)c(F)cc3C(C)(C)O)n2)c(OC)cc1N1CC[C@@H](N(C)C)C1", "Y"),
    ("C=CC(=O)Nc1cc(Nc2ncnc(Nc3cc(Cl)c(F)cc3C(C)(C)O)n2)c(OC)cc1N1C[C@@H](F)[C@@H](N(C)C)C1", "Y"),
    ("C=CC(=O)Nc1cc(Nc2nccc(Nc3cc(Cl)c(F)cc3C(C)(C)O)n2)c(OC)cc1N1CC[C@@H](CN(C)C)C1", "N"),
]

Now, please, on to the next molecule.
INPUT: In plain terms: is recorded Cmax at least 100 ng/mL for `C=CC(=O)Nc1cc(Nc2nccc(Nc3cc(Cl)c(F)cc3C(C)(C)O)n2)c(OC)cc1N1C[C@@H](F)[C@@H](N(C)C)C1` ?
OUTPUT: N

* * *

- assay_system: human EGFR exon 20 V769_D770insASV (Homo sapiens, UniProt P00533, INS769ASV)
- Sequence (P00533 with tags, fused parts or gaps INS769ASV): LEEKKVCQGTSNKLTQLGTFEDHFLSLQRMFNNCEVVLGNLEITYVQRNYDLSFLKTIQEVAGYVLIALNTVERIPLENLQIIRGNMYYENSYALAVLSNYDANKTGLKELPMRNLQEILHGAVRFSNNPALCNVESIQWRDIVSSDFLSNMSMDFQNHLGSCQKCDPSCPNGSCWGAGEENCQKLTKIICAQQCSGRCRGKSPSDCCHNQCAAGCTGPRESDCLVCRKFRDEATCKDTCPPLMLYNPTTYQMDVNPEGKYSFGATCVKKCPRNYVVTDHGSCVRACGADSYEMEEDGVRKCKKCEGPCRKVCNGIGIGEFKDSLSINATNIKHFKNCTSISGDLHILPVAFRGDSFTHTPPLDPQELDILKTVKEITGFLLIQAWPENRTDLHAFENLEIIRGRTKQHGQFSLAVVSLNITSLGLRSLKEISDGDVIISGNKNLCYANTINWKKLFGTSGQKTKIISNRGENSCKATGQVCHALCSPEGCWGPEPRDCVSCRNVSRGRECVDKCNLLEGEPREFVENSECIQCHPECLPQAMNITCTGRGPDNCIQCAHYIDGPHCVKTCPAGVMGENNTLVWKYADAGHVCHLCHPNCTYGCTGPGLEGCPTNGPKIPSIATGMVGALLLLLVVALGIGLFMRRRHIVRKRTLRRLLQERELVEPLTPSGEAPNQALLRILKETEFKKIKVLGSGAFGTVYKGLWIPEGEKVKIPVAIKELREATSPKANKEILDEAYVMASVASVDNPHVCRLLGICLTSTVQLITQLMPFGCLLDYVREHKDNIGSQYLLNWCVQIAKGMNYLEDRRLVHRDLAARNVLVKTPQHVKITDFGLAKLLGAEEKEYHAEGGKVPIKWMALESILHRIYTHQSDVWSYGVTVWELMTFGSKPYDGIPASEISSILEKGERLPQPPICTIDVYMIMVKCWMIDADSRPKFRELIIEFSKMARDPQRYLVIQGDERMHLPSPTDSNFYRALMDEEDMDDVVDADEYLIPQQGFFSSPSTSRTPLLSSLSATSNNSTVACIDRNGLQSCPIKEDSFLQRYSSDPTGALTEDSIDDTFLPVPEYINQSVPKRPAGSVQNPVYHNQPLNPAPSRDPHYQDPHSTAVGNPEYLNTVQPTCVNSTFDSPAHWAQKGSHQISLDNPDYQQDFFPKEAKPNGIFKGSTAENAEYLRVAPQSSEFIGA
- experiment: EGFR Exon20 ASV insertion cellular phosphorylation inhibition (MSD pEGFR Y1068/total EGFR);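 note: electrochemiluminescent readout on an MSD SECTOR Imager, IL3-independent transduced cells in medium with 1% FBS, compound concentration series at 37 °C and 5% CO2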
- test_settings: Ba/F3 EGFR ASV ins cells, 4 h compound, p-EGFR(Y1068)/total EGFR
As shown below, each of these molecules has a reported pIC50 value.
Just the number, please; pIC50 means minus log10 of the concentration in mol/L.

Reference set (5 entries):
# molecule, pIC50
records = [
    ("C=CC(=O)Nc1cc(Nc2ncnc(Nc3ccc(C(F)(F)F)cc3C(C)(C)O)n2)c(OC)cc1N(C)CCN(C)C", 7.64),
    ("C=CC(=O)Nc1cc(Nc2nccc(Nc3cc(Cl)c(Cl)cc3C(C)(C)O)n2)c(OC)cc1N1CC[C@@H]1CN(C)C", 7.51),
    ("C=CC(=O)Nc1cc(Nc2ncnc(Nc3cc(F)c(F)cc3C(C)(O)CC)n2)c(OC)cc1N(C)CCN(C)C (stereo not shown)", 8.02),
    ("[2H]C([2H])([2H])N(CCN(C)c1cc(OC)c(Nc2ncnc(Nc3cc(F)c(F)cc3C(C)(C)O)n2)cc1NC(=O)C=C)C([2H])([2H])[2H]", 8.06),
    ("C=CC(=O)Nc1cc(Nc2ncnc(Nc3cnc(C)cc3C(C)(C)O)n2)c(OC)cc1N(C)CCN(C)C", 6.72),
]

INPUT: Please provide the recorded pIC50 for `C=CC(=O)Nc1cc(Nc2nccc(Nc3cc(Cl)c(F)cc3C(C)(C)O)n2)c(OC)cc1N1CC[C@H](N(C)C)C1` , tested on human EGFR exon 20 V769_D770insASV (Homo sapiens, UniProt P00533, INS769ASV).
OUTPUT: 7.28

INPUT: Subsequent entry: `C=CC(=O)Nc1cc(Nc2ncnc(Nc3cc(F)c(F)cc3C(C)(C)O)n2)c(OC)cc1N(C)C[C@H]1CCCN1C`
OUTPUT: 8.03

* * *

- assay_system: Phospho-BTK (Tyr223) (Homo sapiens, UniProt Q06187)
- Construct: endogenous in cells; host or cells: Ramos
- Sequence (Q06187 whole entry): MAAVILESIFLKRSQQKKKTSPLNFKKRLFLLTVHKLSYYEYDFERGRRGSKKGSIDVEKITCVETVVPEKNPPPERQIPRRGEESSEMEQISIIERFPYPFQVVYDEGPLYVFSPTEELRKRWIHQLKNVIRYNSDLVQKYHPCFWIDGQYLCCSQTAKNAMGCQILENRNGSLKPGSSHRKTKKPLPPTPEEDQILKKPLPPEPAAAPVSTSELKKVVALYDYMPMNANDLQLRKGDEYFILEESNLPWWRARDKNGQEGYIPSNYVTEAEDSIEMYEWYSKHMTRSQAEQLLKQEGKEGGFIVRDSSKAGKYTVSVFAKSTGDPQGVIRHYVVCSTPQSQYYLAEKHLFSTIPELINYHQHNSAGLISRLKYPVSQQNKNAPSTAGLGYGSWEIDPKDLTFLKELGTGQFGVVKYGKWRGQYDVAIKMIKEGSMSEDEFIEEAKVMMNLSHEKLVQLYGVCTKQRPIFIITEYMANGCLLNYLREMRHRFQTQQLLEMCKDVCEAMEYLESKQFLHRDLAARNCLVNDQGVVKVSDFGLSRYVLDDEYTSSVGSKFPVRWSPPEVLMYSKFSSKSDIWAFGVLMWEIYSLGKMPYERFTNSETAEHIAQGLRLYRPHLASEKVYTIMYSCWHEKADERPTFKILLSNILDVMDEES
- experiment: p-BTK assay in Ramos cells (HTRF Phospho-BTK Tyr223)
- Assay type: cell-based
- test_settings: pervanadate stimulated, read-out: p-BTK (Romas) IC50
Counter-ions that a name gives are not always drawn.
metric_name: IC50 (nM)
Field: numeric (nM). Do not append units.

Please review the entries below; each comes with its answer.
# compound, units_label, IC50
records = [
    ("C=CC(=O)Nc1cc(Nc2nccc(Nc3cc(Cl)c(F)cc3C(C)(O)CC)n2)c(OC)cc1N1CC[C@@H](N(C)C)C1 (single isomer, unassigned)", "nM", 1.6),
    ("C=CC(=O)Nc1cc(Nc2nccc(Nc3cc(Cl)c(F)cc3C(C)(C)O)n2)c(OC)cc1N1CC[C@@H](N(C)C)C1", "nM", 2.9),
    ("C=CC(=O)Nc1cc(Nc2nccc(Nc3cc(Cl)c(F)cc3C(C)(C)O)n2)c(OC)cc1N1CC[C@@H]1CN(C)C", "nM", 3.8),
    ("C=CC(=O)Nc1cc(Nc2ncnc(Nc3cc(Cl)c(F)cc3C(C)(C)O)n2)c(OC)cc1N1CC(CN(C)C)C1", "nM", 0.9),
    ("C=CC(=O)Nc1cc(Nc2ncnc(Nc3cc(F)c(F)cc3C(C)(C)O)n2)c(OC)cc1N1CC(CN(C)C)C1", "nM", 1.6),
    ("C=CC(=O)Nc1cc(Nc2ncnc(Nc3cc(Cl)c(F)cc3C(C)(C)O)n2)c(OC)cc1N1CC[C@@H]1CN(C)C", "nM", 1.3),
]

Note: attention shifts to another entry.
INPUT: What does the record list as IC50 for C=CC(=O)Nc1cc(Nc2nccc(Nc3cc(Cl)c(F)cc3C(C)(C)O)n2)c(OC)cc1N1CC[C@@H](NC)C1 [Compound 80, TFA salt] ?
OUTPUT: 5.8

* * *

- Tested on: DB cells
- experiment: BTK (wt) cell proliferation, DB (CellTiter-Glo, 72 h)
- Assay type: cell-based
- test_settings: Homo sapiens, DB, DB cells, CellTiter-Glo, read-out: Non-BCR activated DB GI50
Consider the following compounds and their measured GI50 readings.

Below, 4 compounds whose answers are already recorded.
# compound, GI50
rows = [
    ("C=CC(=O)Nc1cc(Nc2nccc(Nc3cc(Cl)c(F)cc3C(C)(C)O)n2)c(OC)cc1N1C[C@@H](C)C[C@@H]1CN(C)C [Compound 91]", "> 3 µM"),
    ("C=CC(=O)Nc1cc(Nc2ncnc(Nc3cc(F)c(F)cc3C(C)(C)O)n2)c(OC)cc1N1CC[C@@H]2CN(C)C[C@@H]21 [Compound 17]", "> 3 µM"),
    ("C=CC(=O)Nc1cc(Nc2ncc(C#N)c(Nc3cc(Cl)c(F)cc3C(C)(C)O)n2)c(OC)cc1N1CC[C@@H](N(C)C)C1 [Compound 85]", "> 3 µM"),
    ("C=CC(=O)Nc1cc(Nc2ncnc(Nc3cc(F)c(F)cc3C(C)(O)CC)n2)c(OC)cc1N1CCC[C@H]1CN(C)C (stereo partly drawn) [Compound 58]", "> 3 µM"),
]

INPUT: GI50 for C=CC(=O)Nc1cc(Nc2ncnc(Nc3cc(Cl)c(Cl)cc3C(C)(C)O)n2)c(OC)cc1N(C)CCN(C)C [Compound 15] ?
OUTPUT: 1.34 µM

INPUT: Proceed to C=CC(=O)Nc1cc(Nc2ncnc(Nc3cc(Cl)c(Cl)cc3C(C)(C)O)n2)c(OC)cc1N1CC[C@@H]1CN(C)C [Compound 54]
OUTPUT: > 3 µM

* * *

- Test system: DB cells
- experiment: BTK (wt) cell proliferation, DB (CellTiter-Glo, 72 h);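 note: DB cells in 384-well plates given a dilution series of compound, viable cells read by ATP luminescence, growth expressed versus DMSO control after subtracting a time-zero plate reading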
- Assay type: cell-based
- test_settings: Homo sapiens, DB, DB cells, CellTiter-Glo, read-out: Non-BCR activated DB GI50
Structures can show the parent of a compound that is named as a salt.
metric_name: GI50

# compound, GI50
rows = [
    ("C=CC(=O)Nc1cc(Nc2ncnc(Nc3cnc(C)cc3C(C)(C)O)n2)c(OC)cc1N(C)CCN(C)C", "> 3000 nM"),
]

INPUT: Which GI50 value is on record for C=CC(=O)Nc1cc(Nc2nccc(Nc3cc(Cl)c(F)cc3C(C)(C)O)n2)c(OC)cc1N1C[C@H](F)C[C@@H]1CN(C)C [Compound 88, formic acid salt] ?
OUTPUT: > 3000 nM

INPUT: Consider next the compound `C=CC(=O)Nc1cc(Nc2ncnc(Nc3cc(F)c(F)cc3C(C)(C)O)n2)c(OC)cc1N1CCOC[C@@H]1CN(C)C` in the same way.
OUTPUT: > 3000 nM

INPUT: Further, for `C=CC(=O)Nc1cc(Nc2ncc(Cl)c(Nc3cc(Cl)c(F)cc3C(C)(C)O)n2)c(OC)cc1N(C)CCN(C)C` ?
OUTPUT: > 3000 nM

INPUT: Input `C=CC(=O)Nc1cc(Nc2ncnc(Nc3cc(Cl)c(F)cc3C(C)(C)O)n2)c(OC)cc1N(C)CCN(C)C`
OUTPUT: 2800 nM

INPUT: Ok, now `C=CC(=O)Nc1cc(Nc2nccc(Nc3cc(Cl)c(F)cc3C(C)(C)O)n2)c(OC)cc1N1CC[C@H](N(C)C)C1`
OUTPUT: 1210 nM

INPUT: Same thing, different compound: `C=CC(=O)Nc1cc(Nc2ncnc(Nc3cc(F)c(F)cc3C(C)(C)O)n2)c(OC)cc1N1CC(CN(C)C)C1`
OUTPUT: > 3000 nM

INPUT: Subsequent entry: `C=CC(=O)Nc1cc(Nc2ncnc(Nc3cc(F)c(F)cc3C(C)(C)O)n2)c(OC)cc1N1CC[C@@H]1CN(C)C`
OUTPUT: > 3000 nM

INPUT: `C=CC(=O)Nc1cc(Nc2ncnc(Nc3cnc(F)cc3C(C)(C)O)n2)c(OC)cc1N(C)CCN(C)C` ?
OUTPUT: > 3000 nM
